Measured values drawn from patent US20260285850A1 for this set.

Would you mind telling me the reported Wheat plant response rating (0-100) of each entry?
- Test system: wheat (Triticum aestivum)
- experimentSummary: Test A postemergence application, visual injury rating 0-100
- Type: in vivo
- testParameters: 62 g ai/ha, postemergence, 10 days, 0 = no effect, 100 = complete control
One number for each entry.

Consider the worked cases shown below.
[[record]]
compound = "C=CC1(C(=O)NC2C=CC(C(=O)OC)C2)CN(c2cc(F)cc(F)c2)C(=O)O1 (single isomer, unassigned)"
val = 0

[[record]]
compound = "CC(C)COC(=O)C1=CCC(NC(=O)C2(C)CN(c3cc(F)cc(F)c3)C(=O)O2)C1 (stereo not shown)"
val = 10

[[record]]
compound = "CC1(C(=O)NC2CC=C(C(=O)O)C2)CN(c2cc(Cl)cc(Cl)c2)C(=O)O1 (stereo not shown)"
val = 30

[[record]]
compound = "CC1(C(=O)NC2CC=C(C(=O)OCC(F)F)C2)CN(c2cc(Cl)cc(Cl)c2)C(=O)O1 (stereo not shown) [Compound 153]"
val = 0

[[record]]
compound = "COC(=O)C1CC(NC(=O)C2(C)CN(c3cc(F)cc(F)c3)C(=O)O2)C1 (stereo not shown)"
val = 90

[[record]]
compound = "CC1(C(=O)NC2CC=C(C(=O)OCC(F)F)C2)CN(c2cc(F)cc(F)c2)C(=O)O1 (stereo not shown)"
val = 90


Ask | Item CC(C)OC(=O)C1=CCC(NC(=O)C2(C)CN(c3cc(Cl)cc(Cl)c3)C(=O)O2)C1 (stereo not shown) has what recorded Wheat plant response rating (0-100)?
Reply | 0

###

- Tested on: wheat (Triticum aestivum)
- experimentSummary: Test A postemergence application, visual injury rating 0-100
- Type: in vivo
- testParameters: Postemergence, 16 g ai/ha, greenhouse 10 days; 0 no effect, 100 complete control
endpoint: Wheat plant response rating (0 to 100 scale)
Numbers only.

[[record]]
molecule = "COC(=O)COC(=O)C1=CCC(NC(=O)C2(C)CN(c3cc(F)cc(F)c3)C(=O)O2)C1 (stereo not shown) [Compound 107]"
val = 0


Return reported Wheat plant response rating (0 to 100 scale) values for all items listed beneath this line.
1. CC(C)COC(=O)C1=CCC(NC(=O)C2(C)CN(c3cc(F)cc(F)c3)C(=O)O2)C1 (stereo not shown) [Compound 97]
2. CSCCOC(=O)C1=CCC(NC(=O)C2(C)CN(c3cc(Cl)cc(Cl)c3)C(=O)O2)C1 (stereo not shown) [Compound 146]

Reply |
0
0

Ask | Item C=CC1(C(=O)NC2C=CC(C(=O)OC)C2)CN(c2cc(F)cc(F)c2)C(=O)O1 (single isomer, unassigned) [Compound 168] has what recorded Wheat plant response rating (0 to 100 scale)?
Reply | 0

###

- Test system: wheat (Triticum aestivum)
- experimentSummary: Test A preemergence soil spray, visual injury rating 0-100
- Type: in vivo
- testParameters: 62 g ai/ha, 10 days, 0 = no effect, 100 = complete control
Would you mind telling me the reported Wheat plant response rating (0-100) of each entry?
Give bare numbers.

[[record]]
molecule = "CCOC(=O)C1CC(NC(=O)C2(C)CN(c3cc(F)cc(F)c3)C(=O)O2)C1 (centres unmarked)"
val = 60

[[record]]
molecule = "C=CC1(C(=O)NC2CC(C(=O)OC)C2)CN(c2cc(F)cc(F)c2)C(=O)O1 (centres unmarked) [Compound 173]"
val = 100

[[record]]
molecule = "COC(=O)C1CC(NC(=O)C2(C)CN(c3cc(F)cc(Cl)c3)C(=O)O2)C1 (centres unmarked)"
val = 90

[[record]]
molecule = "CC1(C(=O)NC2CC=C(C(=O)NS(C)(=O)=O)C2)CN(c2cc(F)cc(F)c2)C(=O)O1 (racemic)"
val = 60

[[record]]
molecule = "COC(=O)C1CC(NC(=O)C2(C)CN(c3cc(F)cc(F)c3)C(=O)O2)C1 (centres unmarked)"
val = 80

[[record]]
molecule = "CC1(C(=O)NC2CC=C(C(=O)O)C2)CN(c2cc(F)cc(Cl)c2)C(=O)O1 (centres unmarked)"
val = 0

[[record]]
molecule = "CC(C)COC(=O)C1=CCC(NC(=O)C2(C)CN(c3cc(Cl)cc(Cl)c3)C(=O)O2)C1 (centres unmarked)"
val = 10


Consider the record given below.
Ask | Item CCOC(=O)C1=CCC(NC(=O)C2(C)CN(c3cc(F)cc(Cl)c3)C(=O)O2)C1 (centres unmarked) has what recorded Wheat plant response rating (0-100)?
Reply | 90
